Data credit: paper PMC10244618

B1: NF2 (merlin) isoform 7, human, full length (507 aa, lacks exons 2-3 = isoform-1 residues 39-121; exon-16 C-terminus), P35240-4 (parent)
chain: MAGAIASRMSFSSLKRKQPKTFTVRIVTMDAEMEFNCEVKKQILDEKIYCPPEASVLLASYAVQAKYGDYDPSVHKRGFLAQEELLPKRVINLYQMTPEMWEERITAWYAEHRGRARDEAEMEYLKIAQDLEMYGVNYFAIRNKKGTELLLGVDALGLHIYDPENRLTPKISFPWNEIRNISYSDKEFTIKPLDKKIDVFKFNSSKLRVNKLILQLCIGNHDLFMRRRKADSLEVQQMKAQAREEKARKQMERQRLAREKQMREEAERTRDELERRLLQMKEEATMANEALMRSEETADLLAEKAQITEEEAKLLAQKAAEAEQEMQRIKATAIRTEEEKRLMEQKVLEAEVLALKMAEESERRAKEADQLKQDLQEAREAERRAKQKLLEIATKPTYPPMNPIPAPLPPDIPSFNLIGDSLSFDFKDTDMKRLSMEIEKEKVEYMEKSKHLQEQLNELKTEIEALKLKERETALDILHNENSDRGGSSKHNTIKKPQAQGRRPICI

Variants of: B1
Test name: reverse yeast two-hybrid deep mutational scan (rY2H-seq): NF2 isoform 7 mutant library as bait mated with wild-type prey strains; selection on medium lacking adenine for non-interacting pairs; NextSeq paired-end sequencing; enrichment vs …
Recorded conditions: with KDM1A (lysine-specific histone demethylase 1A; the table's label AOF2 is a gene synonym of KDM1A), O60341; yeast diploids after mating (RBait_S3 x RPrey_S3), 30 °C, selection for reporter genes on NB agar; human tyrosine kinase ABL2 co-expressed as the active kinase …; HIGHER = WEAKER BINDING (the opposite of display enrichments): higher = stronger loss of interaction: reverse Y2H selects yeast in which bait and prey do NOT interact (growth without adenine), so a …; hits-only table; scale: rY2H score; numbering: uniprot, sequence starts at 1
Property: enrichment

Answered cases to consult:
Mutation descriptor | Val
L58K | 7.51
P163E | 4.05
T332A | 2.16

P. E321L
Q. K356A
Challenge: Between P and Q , which one shows the smaller enrichment number? Answer format: the label of the selected item.
Response given: Q
(Q: 2, P: 3.26)

a. L417E
b. Q306H
Challenge: I'd appreciate it if you could identify which of a and b has the greater enrichment. Answer format: the label of the selected item.
Response given: a

I. I329L
II. M96I
Challenge: Between I and II , which one shows the smaller enrichment number? Answer format: the label of the selected item.
Response given: II
(II: 1.63, I: 3.51)

a. L375A
b. N165A
Challenge: I'd appreciate it if you could identify which of a and b has the greater enrichment. Answer format: the label of the selected item.
Response given: b

a. I334K
b. S421K
Challenge: I'd appreciate it if you could identify which of a and b has the greater enrichment. Answer format: the label of the selected item.
Response given: a
(a: 3.87, b: 2.61)
